These entries and their values trace back to patent US6297237A.

- testedTarget: erythrocyte AChE (Homo sapiens, UniProt P22303)
- Construct: from tissue
- Sequence (P22303 other isoform, or with tags, fused parts or gaps): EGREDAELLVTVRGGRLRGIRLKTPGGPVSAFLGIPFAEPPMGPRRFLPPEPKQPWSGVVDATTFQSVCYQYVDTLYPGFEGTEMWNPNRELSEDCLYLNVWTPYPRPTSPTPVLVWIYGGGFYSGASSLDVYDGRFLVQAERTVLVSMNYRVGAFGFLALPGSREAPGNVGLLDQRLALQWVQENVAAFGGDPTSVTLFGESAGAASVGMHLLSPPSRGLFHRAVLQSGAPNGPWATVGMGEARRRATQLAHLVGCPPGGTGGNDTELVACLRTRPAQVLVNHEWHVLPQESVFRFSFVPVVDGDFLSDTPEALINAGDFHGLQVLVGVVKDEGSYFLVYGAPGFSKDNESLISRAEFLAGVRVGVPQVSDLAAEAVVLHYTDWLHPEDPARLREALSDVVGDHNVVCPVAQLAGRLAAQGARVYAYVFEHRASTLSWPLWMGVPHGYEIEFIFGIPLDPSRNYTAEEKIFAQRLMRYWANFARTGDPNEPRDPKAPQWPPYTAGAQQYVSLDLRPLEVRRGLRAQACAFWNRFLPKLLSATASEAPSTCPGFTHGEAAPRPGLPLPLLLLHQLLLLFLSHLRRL
- assayText: In vitro inhibition of erythrocyte AChE (Table 3)
- Format: biochemical
- conditionContext: in vitro, erythrocyte AChE, n = 4-8; read-out: AChE IC50 (μM) ± s.e.
Counter-ions that a name gives are not always drawn.
measuredParameter: IC50 (µM)

- molecule: "Cc1cccc(NC(=O)Oc2ccc3c(c2)[C@]2(C)CCN(C)OC2N3C)c1 (stereo partly shown) [CHF 2957, hydrochloride]"
  testedTarget: "erythrocyte AChE (Homo sapiens, UniProt P22303)"
  obsValue: 4.2
- molecule: "CCCCCCCNC(=O)Oc1ccc2c(c1)[C@]1(C)CCN(C)OC1N2C (stereo partly shown) [CHF 2060, hydrochloride, reference compound]"
  testedTarget: "erythrocyte AChE (Homo sapiens, UniProt P22303)"
  obsValue: 0.85
- molecule: "CCc1ccccc1NC(=O)Oc1ccc2c(c1)[C@]1(C)CCN(C)OC1N2C (stereo partly shown) [CHF 2819, hydrochloride]"
  testedTarget: "erythrocyte AChE (Homo sapiens, UniProt P22303)"
  obsValue: 0.48
- molecule: "Cc1ccccc1NC(=O)Oc1ccc2c(c1)[C@]1(C)CCN(C)OC1N2C (stereo partly shown) [CHF 2822, hydrochloride]"
  testedTarget: "erythrocyte AChE (Homo sapiens, UniProt P22303)"
  obsValue: 2.01

---

- testedTarget: brain AChE (Rattus norvegicus)
- Construct: from tissue; host or cells: rat brain (male SD rats), homogenate in Triton/phosphate buffer, supernatant
- assayText: Rat brain AChE inhibition ex vivo after oral administration (Table 1)
- Format: in vivo
- conditionContext: po, read-out: ED50 (dose of compound to inhibit 50% of the enzyme); p.o., rat, brain AChE, 2 h; C.L. 95% given
Counter-ions that a name gives are not always drawn.
measuredParameter: ED50

- compound: "CCc1ccccc1NC(=O)Oc1ccc2c(c1)[C@]1(C)CCN(C)OC1N2C (stereo partly shown) [CHF 2819, hydrochloride]"
  testedTarget: "brain AChE (Rattus norvegicus)"
  obsValue: "1.5 mg/kg"
- compound: "CCCCCCCNC(=O)Oc1ccc2c(c1)[C@]1(C)CCN(C)OC1N2C (stereo partly shown) [CHF 2060, hydrochloride, reference compound]"
  testedTarget: "brain AChE (Rattus norvegicus)"
  obsValue: "13.2 mg/kg"
- compound: "Cc1ccccc1NC(=O)Oc1ccc2c(c1)[C@]1(C)CCN(C)OC1N2C (stereo partly shown) [CHF 2822, hydrochloride]"
  testedTarget: "brain AChE (Rattus norvegicus)"
  obsValue: "1.6 mg/kg"
- compound: "Cc1cccc(NC(=O)Oc2ccc3c(c2)[C@]2(C)CCN(C)OC2N3C)c1 (stereo partly shown) [CHF 2957, hydrochloride]"
  testedTarget: "brain AChE (Rattus norvegicus)"
  obsValue: "4.1 mg/kg"

---

- testedTarget: brain AChE (Rattus norvegicus, UniProt P37136)
- Construct: from tissue; host or cells: rat brain (male SD rats), homogenate in Triton/phosphate buffer, supernatant
- Sequence (P37136 32-614): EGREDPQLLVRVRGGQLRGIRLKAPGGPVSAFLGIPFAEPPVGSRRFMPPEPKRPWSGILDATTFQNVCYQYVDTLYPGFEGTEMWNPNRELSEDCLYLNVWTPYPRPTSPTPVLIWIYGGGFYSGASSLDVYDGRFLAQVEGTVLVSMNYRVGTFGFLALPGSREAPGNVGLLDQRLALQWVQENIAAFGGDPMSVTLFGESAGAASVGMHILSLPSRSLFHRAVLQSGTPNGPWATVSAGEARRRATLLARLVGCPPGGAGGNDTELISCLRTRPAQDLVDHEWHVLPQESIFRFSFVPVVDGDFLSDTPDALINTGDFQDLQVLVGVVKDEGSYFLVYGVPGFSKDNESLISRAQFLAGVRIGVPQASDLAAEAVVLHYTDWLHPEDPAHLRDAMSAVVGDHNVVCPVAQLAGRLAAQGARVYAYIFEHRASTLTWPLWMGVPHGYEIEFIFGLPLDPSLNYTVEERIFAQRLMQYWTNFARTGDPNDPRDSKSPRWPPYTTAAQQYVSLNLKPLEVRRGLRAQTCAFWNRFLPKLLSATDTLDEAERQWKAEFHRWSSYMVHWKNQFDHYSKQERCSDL
- assayText: Inhibition kinetics of brain AChE after oral administration (Table 2)
- Assay type: in vivo
- conditionContext: p.o. at 1/7 LD50: CHF 2060 10, CHF 2819 1.3, CHF 2822 2.5, CHF 2957 9 mg/kg; 1, 4, 16 h; rat
Where a name gives a salt, the structure may show the parent alone.
brain AUC (% inhib · xh) overview
measuredParameter: brain AUC (% inhib · xh)

- molecule: "CCCCCCCNC(=O)Oc1ccc2c(c1)[C@]1(C)CCN(C)OC1N2C (stereo partly shown) [CHF 2060, hydrochloride, reference compound]"
  obsValue: 252
- molecule: "CCc1ccccc1NC(=O)Oc1ccc2c(c1)[C@]1(C)CCN(C)OC1N2C (stereo partly shown) [CHF 2819, hydrochloride]"
  obsValue: 348
- molecule: "Cc1ccccc1NC(=O)Oc1ccc2c(c1)[C@]1(C)CCN(C)OC1N2C (stereo partly shown) [CHF 2822, hydrochloride]"
  obsValue: 379
- molecule: "Cc1cccc(NC(=O)Oc2ccc3c(c2)[C@]2(C)CCN(C)OC2N3C)c1 (stereo partly shown) [CHF 2957, hydrochloride]"
  obsValue: 585
